- System: NRF2 mediated gene NAD(P)H:quinone acceptor oxidoreductase 1 (NQO1) in BEAS-2B cells
- protocol-notes: Beas2B NQO1 mRNA Cell Based Assay
- Parameters: species or system human
- condition-info: Homo sapiens; BEAS-2B cells, compound for 24 h; increase in NQO1 mRNA compared to vehicle (0.1% DMSO) control; read-out: EC50
test-readout: EC50 (nM)
Respond with the bare value in nM.

stdin: Item: CNC(=O)[C@@]1(C)CCCC[C@H]1C(=O)N1CCc2c(Cl)ccc(OCc3nnn(C)c3C3CC3)c2[C@H]1CN1C[C@H](C)CC1=O Test system: NRF2 mediated gene NAD(P)H:quinone acceptor oxidoreductase 1 (NQO1) in BEAS-2B cells Read-out: EC50 Value: ?
stdout: 299

stdin: Next up: CNC(=O)[C@@]1(C)CCCC[C@H]1C(=O)N1CCc2c(Cl)ccc(OCc3nnn(C)c3C)c2[C@H]1CN1CC2(CC2)CC1=O
stdout: 18

stdin: Next up: CNC(=O)[C@@]1(C)CCCC[C@H]1C(=O)N1CCc2c(Cl)ccc(OCc3nnn(C)c3C(F)F)c2[C@H]1CN1CCCC1=O
stdout: 239

stdin: Next up: Cc1c(COc2c(F)cc(Cl)c3c2[C@@H](CN2CC4(CC4)CC2=O)N(C(=O)[C@@H]2CCCC[C@]2(C)C(N)=O)CC3)nnn1C
stdout: 99

stdin: Next up: CNC(=O)[C@@]1(C)CCCC[C@H]1C(=O)N1CCc2c(Cl)ccc(OCc3cn(C)nn3)c2[C@H]1CN1CC2(CC2)CC1=O
stdout: 59

stdin: Next up: CNC(=O)N1CCOC[C@H]1C(=O)N1CCc2c(Cl)ccc(OCc3nnn(C)c3C(F)F)c2[C@H]1CN1CCCC1=O
stdout: 4130

stdin: Next up: CNC(=O)[C@H]1CCCC[C@H]1C(=O)N1CCc2c(Cl)ccc(OCc3cccnn3)c2[C@H]1CN1CCCC1=O
stdout: 1080

stdin: Next up: CNC(=O)[C@H]1CCCC[C@H]1C(=O)N1CCc2c(Cl)ccc(OCc3noc4ncccc34)c2[C@H]1CN1CCCC1=O
stdout: 295

stdin: Next up: NC(=O)[C@H]1CCCC[C@H]1C(=O)N1CCc2c(Cl)ccc(OCc3noc4ccccc34)c2[C@H]1CN1CCCC1=O [Example 54, reference compound]
stdout: 135

stdin: Next up: CCNC(=O)[C@H]1CCCC[C@H]1C(=O)N1CCc2cccc(OCCNC(=O)c3cc(C)on3)c2[C@H]1CN1C(=O)c2ccccc2C1=O
stdout: 2360

stdin: Next up: CNC(=O)[C@@]1(C)CCCC[C@H]1C(=O)N1CCc2c(Cl)ccc(OCc3nnn(C)c3C3CC3)c2[C@H]1CN1CC2(CC2)CC1=O
stdout: 57

stdin: Next up: CNC(=O)[C@H]1CCCC[C@H]1C(=O)N1CCc2c(Cl)ccc(OCc3nnc4ccccn34)c2[C@H]1CN1CCCC1=O
stdout: 288

stdin: Next up: CNC(=O)[C@@]1(C)CCCC[C@H]1C(=O)N1CCc2c(Cl)cc(F)c(OCc3nnn(C)c3C(F)F)c2[C@H]1CN1CC2(CC2)CC1=O
stdout: 25

stdin: Next up: CNC(=O)[C@@]1(C)CCC[C@H]1C(=O)N1CCc2c(Cl)ccc(OCc3nnn(C)c3C(F)F)c2[C@H]1CN1CCC(C)C1=O (single isomer, unassigned)
stdout: 565

stdin: Next up: CNC(=O)N1CCCC[C@H]1C(=O)N1CCc2c(Cl)ccc(OCc3nnn(C)c3C(F)F)c2[C@H]1CN1CCCC1=O
stdout: 336

stdin: Next up: CNC(=O)[C@H]1CCCC[C@H]1C(=O)N1CCc2c(Cl)ccc(OCc3cn4cccnc4n3)c2[C@H]1CN1CCCC1=O
stdout: 2170

stdin: Next up: CNC(=O)[C@H]1CCCC[C@H]1C(=O)N1CCc2c(Cl)ccc(OCCc3cn(C)nn3)c2[C@H]1CN1CCCC1=O
stdout: 5660

stdin: Next up: CNC(=O)N1CCC[C@H]1C(=O)N1CCc2c(Cl)ccc(OCc3cn(C)nn3)c2[C@H]1CN1CCCC1=O
stdout: 8720

stdin: Next up: CNC(=O)C1OCCC1C(=O)N1CCc2c(Cl)ccc(OCc3nnn(C)c3C(F)F)c2[C@H]1CN1CCCC1=O (single isomer, unassigned)
stdout: 1740

stdin: Next up: C[C@]1(C(N)=O)CCCC[C@H]1C(=O)N1CCc2c(Cl)cc(F)c(OCc3nnn4c3CCCC4)c2[C@H]1CN1CC2(CC2)CC1=O
stdout: 30

stdin: Next up: CNC(=O)[C@H]1CCCC[C@H]1C(=O)N1CCc2c(Br)ccc(OCc3noc(C(C)C)n3)c2[C@H]1CN1CCCC1=O
stdout: 330

stdin: Next up: CNC(=O)[C@H]1CCCC[C@H]1C(=O)N1CCc2c(Cl)ccc(OCc3noc(C(C)C)n3)c2[C@H]1CN1CCCC1=O
stdout: 4000

stdin: Next up: CNC(=O)[C@@]1(C)CCCC[C@H]1C(=O)N1CCc2c(Cl)ccc(OCc3nnn(C)c3C3CC3)c2[C@H]1CN1CCCC1=O
stdout: 109

stdin: Next up: CNC(=O)[C@@]1(C)CCCC[C@H]1C(=O)N1CCc2c(Cl)cc(F)c(OCc3nnn(C)c3C(F)F)c2[C@H]1CN1CCOCC1=O
stdout: 654

====

- Test system: NRF2 mediated gene NAD(P)H:quinone acceptor oxidoreductase 1 (NQO1) in BEAS-2B cells
- protocol-notes: Beas2B NQO1 mRNA Cell Based Assay
- Parameters: species or system human
- condition-info: Homo sapiens; BEAS-2B cells, compound for 24 h; increase in NQO1 mRNA compared to vehicle (0.1% DMSO) control; read-out: EC50
test-readout: pEC50
FYI, pEC50 means -log10 of a concentration in mol per litre.

stdin: Fill blank: measured pEC50 of the compound CCNC(=O)[C@H]1CCCC[C@H]1C(=O)N1CCc2cccc(O[C@H]3CCN(C(=O)c4cncs4)C3)c2[C@H]1CN1C(=O)c2ccccc2C1=O [Example 42] is ____.
stdout: 6.24

stdin: Next up: CNC(=O)[C@H]1CCCC[C@H]1C(=O)N1CCc2c(Cl)ccc(OCc3nnc(C)n3C)c2[C@H]1CN1CCCC1=O [Example 86]
stdout: 5.62

stdin: Next up: CNC(=O)[C@H]1CCCC[C@H]1C(=O)N1CCc2c(Cl)ccc(OCc3ccc4c(C)noc4n3)c2[C@H]1CN1CCCC1=O [Example 71]
stdout: 6.94

stdin: Next up: CNC(=O)[C@@]1(C)CCCC[C@H]1C(=O)N1CCc2c(Cl)ccc(OCc3nnn(C)c3C(F)F)c2[C@H]1CN1CCC(C)C1=O (single isomer, unassigned) [Example 96]
stdout: 5.50

stdin: Next up: CNC(=O)[C@@]1(C)CCCC[C@H]1C(=O)N1CCc2c(Cl)ccc(OCc3nnn(C)c3C(F)(F)F)c2[C@H]1CN1CCCC1=O [Example 91]
stdout: 6.22

====

- target-or-system: human KEAP1 (N-term, residues 321-609) (Homo sapiens)
- Construct: human KEAP1 (N-term, residues 321-609)
- Sequence (Q14145 321-609): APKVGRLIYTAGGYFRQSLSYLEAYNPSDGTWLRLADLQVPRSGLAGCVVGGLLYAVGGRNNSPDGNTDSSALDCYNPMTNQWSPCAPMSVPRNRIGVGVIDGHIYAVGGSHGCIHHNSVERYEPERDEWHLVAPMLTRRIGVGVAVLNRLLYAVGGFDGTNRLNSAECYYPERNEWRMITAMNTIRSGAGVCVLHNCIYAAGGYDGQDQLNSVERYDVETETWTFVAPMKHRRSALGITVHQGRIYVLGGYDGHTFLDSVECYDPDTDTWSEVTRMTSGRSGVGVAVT
- protocol-notes: KEAP1 Kelch Fluorescence Polarization (FP) Assay
- condition-info: inhibition of Kelch domain-NRF2 interaction; 2 nM FITC-labelled NRF2 peptide, 25 nM KEAP1, 1 h room temperature; compounds below 10 nM cannot be differentiated
test-readout: pIC50
FYI, pIC50 means -log10 of a concentration in mol per litre.

stdin: Fill blank: measured pIC50 of the compound CNC(=O)[C@]1(C)CCCC[C@@H]1C(=O)N1CCc2c(Cl)ccc(OCc3nnn(C)c3C(F)F)c2[C@@H]1CN1CC2(CC2)CC1=O [Example 98] is ____.
stdout: 8.22

stdin: Next up: CNC(=O)[C@H]1CCCC[C@H]1C(=O)N1CCc2cccc(O[C@H]3CCN(C(=O)c4cnc(C)s4)C3)c2[C@H]1CN1C(=O)c2ccccc2C1=O [Example 22]
stdout: 7.49

stdin: Next up: CNC(=O)[C@H]1CCCC[C@H]1C(=O)N1CCc2c(Cl)ccc(OCc3cnc4c(c3)ncn4C)c2[C@H]1CN1CCCC1=O [Example 68]
stdout: 7.89

====

- target-or-system: human KEAP1 (N-term, residues 321-609) (Homo sapiens)
- Construct: human KEAP1 (N-term, residues 321-609)
- protocol-notes: KEAP1 Kelch Fluorescence Polarization (FP) Assay
- condition-info: inhibition of Kelch domain-NRF2 interaction; 2 nM FITC-labelled NRF2 peptide, 25 nM KEAP1, 1 h room temperature; compounds below 10 nM cannot be differentiated
test-readout: pIC50
FYI, pIC50 means -log10 of a concentration in mol per litre.

stdin: Item: CNC(=O)[C@H]1CCCC[C@H]1C(=O)N1CCc2cccc(O[C@H]3CCN(C(=O)c4csc(C)n4)C3)c2[C@H]1CN1C(=O)c2ccccc2C1=O Test system: human KEAP1 (N-term, residues 321-609) (Homo sapiens) Read-out: pIC50 Value: ?
stdout: 6.53

stdin: Next up: CNC(=O)[C@H]1CCCC[C@H]1C(=O)N1CCc2cccc(O[C@H]3CCN(C(=O)C4CC4)C3)c2[C@H]1CN1C(=O)c2ccccc2C1=O
stdout: 6.71

stdin: Next up: CNC(=O)[C@H]1CCCC[C@H]1C(=O)N1CCc2c(Cl)ccc(OCc3cccnc3)c2[C@H]1CN1CCCC1=O
stdout: 7.14
